test: Study KAR5585-101 Part 1 (SAD): plasma pharmacokinetics after a single oral dose of KAR5585, fasting and fed (incl. dose proportionality and food effect); conditions: human, plasma, po, 700 mg, Cmax, KAR5417 after 700 mg KAR5585 single oral, fasted, Cohort 4; Mean

| COMPOUND | QUANTITY_UNIT | Cmax |
| --- | --- | --- |
| Nc1nc(O[C@H](c2ccc(Cl)cc2-c2ccccc2)C(F)(F)F)cc(N2CCC3(CC2)CN[C@H](C(=O)O)C3)n1 [KAR5417] | ng/mL | 778 |

###

assay: Study KAR5585-101 Part 1 (SAD): plasma pharmacokinetics after a single oral dose of KAR5585, fasting and fed (incl. dose proportionality and food effect); conditions: human, plasma, po, 400 mg, t1 (t½, apparent terminal half-life), 400 mg KAR5585 single oral, fed, Cohort 3B; Mean
ATTRIBUTE_MEASURED: half-life (h)

| COMPOUND | QUANTITY_UNIT | READING |
| --- | --- | --- |
| CCOC(=O)[C@@H]1CC2(CCN(c3cc(O[C@H](c4ccc(Cl)cc4-c4ccccc4)C(F)(F)F)nc(N)n3)CC2)CN1 [KAR5585] | h | 4.45 |

###

assay: Study KAR5585-101 Part 1 (SAD): plasma pharmacokinetics after a single oral dose of KAR5585, fasting and fed (incl. dose proportionality and food effect); settings: human, plasma, po, 400 mg, C12, KAR5417 after 400 mg KAR5585 single oral, fed, Cohort 3B; Mean
ATTRIBUTE_MEASURED: concentration at 12 h

| SMILES_DATA | ATTRIBUTE_MEASURED | READING |
| --- | --- | --- |
| Nc1nc(O[C@H](c2ccc(Cl)cc2-c2ccccc2)C(F)(F)F)cc(N2CCC3(CC2)CN[C@H](C(=O)O)C3)n1 | concentration at 12 h | 169 ng/mL |

###

assay: clinical; conditions: human, plasma, oral, 100 mg
ATTRIBUTE_MEASURED: Cmax at 14 day (ng/mL)

| MOLECULE | QUANTITY_UNIT | READING |
| --- | --- | --- |
| CCOC(=O)[C@@H]1CC2(CCN(c3cc(O[C@H](c4ccc(Cl)cc4-c4ccccc4)C(F)(F)F)nc(N)n3)CC2)CN1 [KAR5585] | ng/mL | 21.3 |
| Nc1nc(O[C@H](c2ccc(Cl)cc2-c2ccccc2)C(F)(F)F)cc(N2CCC3(CC2)CN[C@H](C(=O)O)C3)n1 [KAR5417] | ng/mL | 194 |

###

experiment: Study KAR5585-101 Part 1 (SAD): plasma pharmacokinetics after a single oral dose of KAR5585, fasting and fed (incl. dose proportionality and food effect); conditions: human, plasma, po, 2000 mg, Vz/F, 2000 mg KAR5585 single oral, fasted, Cohort 6; Mean

| SMILES_DATA | QUANTITY_UNIT | Vd/F |
| --- | --- | --- |
| CCOC(=O)[C@@H]1CC2(CCN(c3cc(O[C@H](c4ccc(Cl)cc4-c4ccccc4)C(F)(F)F)nc(N)n3)CC2)CN1 | L | 25100 |

###

test: Study KAR5585-101 Part 1 (SAD): plasma pharmacokinetics after a single oral dose of KAR5585, fasting and fed (incl. dose proportionality and food effect); settings: human, plasma, po, 100 mg, AUC0-24, KAR5417 after 100 mg KAR5585 single oral, fasted, Cohort 1; Mean
ATTRIBUTE_MEASURED: AUC(0-t) (ng·h/mL)

| SMILES_DATA | READING |
| --- | --- |
| Nc1nc(O[C@H](c2ccc(Cl)cc2-c2ccccc2)C(F)(F)F)cc(N2CCC3(CC2)CN[C@H](C(=O)O)C3)n1 | 847 |

###

assay: Study KAR5585-101 Part 1 (SAD): plasma pharmacokinetics after a single oral dose of KAR5585, fasting and fed (incl. dose proportionality and food effect); details: human, plasma, po, 700 mg, Vz/F, 700 mg KAR5585 single oral, fasted, Cohort 4; Geo. Mean

| SMILES_DATA | QUANTITY_UNIT | Vd/F |
| --- | --- | --- |
| CCOC(=O)[C@@H]1CC2(CCN(c3cc(O[C@H](c4ccc(Cl)cc4-c4ccccc4)C(F)(F)F)nc(N)n3)CC2)CN1 | L | 8390 |

###

experiment: clinical; settings: human, plasma, oral, 100 mg/dose
ATTRIBUTE_MEASURED: Vd/F (L)

| SMILES_DATA | READING |
| --- | --- |
| CCOC(=O)[C@@H]1CC2(CCN(c3cc(O[C@H](c4ccc(Cl)cc4-c4ccccc4)C(F)(F)F)nc(N)n3)CC2)CN1 | 4620 |

###

assay: Study KAR5585-101 Part 1 (SAD): plasma pharmacokinetics after a single oral dose of KAR5585, fasting and fed (incl. dose proportionality and food effect); settings: human, plasma, po, 100 mg, Cmax, KAR5417 after 100 mg KAR5585 single oral, fasted, Cohort 1; Geo. Mean

| COMPOUND | QUANTITY_UNIT | Cmax |
| --- | --- | --- |
| Nc1nc(O[C@H](c2ccc(Cl)cc2-c2ccccc2)C(F)(F)F)cc(N2CCC3(CC2)CN[C@H](C(=O)O)C3)n1 [KAR5417] | ng/mL | 93.1 |

###

assay: Study KAR5585-101 Part 1 (SAD): plasma pharmacokinetics after a single oral dose of KAR5585, fasting and fed (incl. dose proportionality and food effect); details: human, plasma, po, 200 mg, t1 (t½, apparent terminal half-life), 200 mg KAR5585 single oral, fasted, Cohort 2; Mean

| SMILES_DATA | QUANTITY_UNIT | half-life |
| --- | --- | --- |
| CCOC(=O)[C@@H]1CC2(CCN(c3cc(O[C@H](c4ccc(Cl)cc4-c4ccccc4)C(F)(F)F)nc(N)n3)CC2)CN1 | h | 3.63 |

###

experiment: Study KAR5585-101 Part 1 (SAD): plasma pharmacokinetics after a single oral dose of KAR5585, fasting and fed (incl. dose proportionality and food effect); conditions: human, plasma, po, 700 mg, AUC0-tau, 700 mg KAR5585 single oral, fasted, Cohort 4; Geo. Mean
ATTRIBUTE_MEASURED: AUC (ng·h/mL)

| MOLECULE | QUANTITY_UNIT | READING |
| --- | --- | --- |
| CCOC(=O)[C@@H]1CC2(CCN(c3cc(O[C@H](c4ccc(Cl)cc4-c4ccccc4)C(F)(F)F)nc(N)n3)CC2)CN1 [KAR5585] | ng·h/mL | 362 |

###

assay: Study KAR5585-101 Part 1 (SAD): plasma pharmacokinetics after a single oral dose of KAR5585, fasting and fed (incl. dose proportionality and food effect); settings: human, plasma, po, 400 mg, tmax, KAR5417 after 400 mg KAR5585 single oral, fasted, Cohort 3A; Median
ATTRIBUTE_MEASURED: Tmax

| COMPOUND | READING |
| --- | --- |
| Nc1nc(O[C@H](c2ccc(Cl)cc2-c2ccccc2)C(F)(F)F)cc(N2CCC3(CC2)CN[C@H](C(=O)O)C3)n1 [KAR5417] | 4 h |

###

assay: Study KAR5585-101 Part 1 (SAD): plasma pharmacokinetics after a single oral dose of KAR5585, fasting and fed (incl. dose proportionality and food effect); settings: human, plasma, po, 100 mg, AUC0-12, KAR5417 after 100 mg KAR5585 single oral, fasted, Cohort 1; Mean

| SMILES_DATA | QUANTITY_UNIT | AUC(0-t) |
| --- | --- | --- |
| Nc1nc(O[C@H](c2ccc(Cl)cc2-c2ccccc2)C(F)(F)F)cc(N2CCC3(CC2)CN[C@H](C(=O)O)C3)n1 | ng·h/mL | 704 |

###

experiment: Study KAR5585-101 Part 1 (SAD): plasma pharmacokinetics after a single oral dose of KAR5585, fasting and fed (incl. dose proportionality and food effect); settings: human, plasma, po, 2000 mg, t1/2, KAR5417 after 2000 mg KAR5585 single oral, fasted, Cohort 6; Mean

| SMILES_DATA | half-life, h |
| --- | --- |
| Nc1nc(O[C@H](c2ccc(Cl)cc2-c2ccccc2)C(F)(F)F)cc(N2CCC3(CC2)CN[C@H](C(=O)O)C3)n1 | 22.6 |

###

experiment: Study KAR5585-101 Part 1 (SAD): plasma pharmacokinetics after a single oral dose of KAR5585, fasting and fed (incl. dose proportionality and food effect); conditions: human, plasma, po, 400 mg, C12, 400 mg KAR5585 single oral, fasted, Cohort 3A; Geo. Mean

| SMILES_DATA | concentration at 12 h (ng/mL) |
| --- | --- |
| CCOC(=O)[C@@H]1CC2(CCN(c3cc(O[C@H](c4ccc(Cl)cc4-c4ccccc4)C(F)(F)F)nc(N)n3)CC2)CN1 | 7.4 |
